Listing of entries alongside the reported GI50.
Tested on: IGROV-1
assay: NCI tumour cell line growth inhibition, 48 h
The source made the active and inactive calls. No stated cut-off is given here; in the data, active = GI50 up to about 1.1 µM and inactive = higher.

Reference set (3 entries):
Ask: Look at this compound and give its reported GI50. COC(=O)c1nsc(OC)c1Cl
Reply: > 100 µM (inactive)

Ask: Now this one: Cc1ccc2nc(Cl)c(/C=N/N3C(=O)/C(=C/c4ccc(N(C)C)cc4)N=C3c3ccccc3)cc2c1
Reply: 29 µM (inactive)

Ask: Now this one: Cc1cc(=O)oc2cc(O)c(CN(C)CC(=O)O)cc12
Reply: > 100 µM (inactive)

Next:
Ask: Look at this compound and give its reported GI50. Cc1ncc([N+](=O)[O-])n1CCNC(=O)Cn1ccnc1[N+](=O)[O-]
Reply: > 100 µM (inactive)

Ask: Now this one: NCc1c(C(N)=O)ncn1Cc1ccccc1
Reply: > 100 µM (inactive)

Ask: Now this one: CCCN(CCc1ccc(-c2ccccc2)cc1)CCc1ccc2nn[nH]c2c1
Reply: 10 µM (inactive)

----------
System: LXFL 529
assay: NCI tumour cell line growth inhibition, 48 h
Active and inactive are the calls of the source. No stated cut-off is given here; in the data, active = GI50 up to about 1.1 µM and inactive = higher.
Hi! Could you answer with just one of these? active, inactive

Ask: Name the outcome recorded for Cn1nnc2c(C(N)=O)ncn2c1=O [TEMOZOLOMIDE] in the assay.
Reply: inactive

Next:
Ask: Name the outcome recorded for COc1c(C=O)c2c(c(OC)c1OC)-c1ccc(OC)c(=O)cc1[C@@H](NC(C)=O)CC2 in the assay.
Reply: active

Ask: Now this one: CC(=O)Nc1ccc(-c2nnc(SCC(=O)Nc3ccccc3[N+](=O)[O-])o2)cc1
Reply: inactive

Ask: Now this one: CN1CCN(CCCN2c3ccccc3Sc3ccc(C(F)(F)F)cc32)CC1
Reply: inactive

Ask: Now this one: O=[N+]([O-])c1nccn1CC(O)c1ccccc1 (centres undefined)
Reply: inactive

Ask: Now this one: CCOC(=O)NC(=O)c1cn(CCN2CCN(C(=O)CCCCCCCCCCNc3ncnc4[nH]cnc34)CC2)c(=O)[nH]c1=O
Reply: inactive

Ask: Now this one: O=C(Nc1ccccc1)c1ccc(Cl)c([N+](=O)[O-])c1
Reply: inactive

Ask: Now this one: N#C/C(=C1\SC(C(N)=O)=C(N)N1c1ccccc1)c1nc2ccccc2[nH]1
Reply: inactive

----------
Test system: MOLT-4
assay: NCI tumour cell line growth inhibition, 48 h
Calls of active or inactive are those of the source. Cut-off read from the data, not from the text of the source: active = GI50 up to about 1.1 µM and inactive = higher.
Hi! Could you answer with just one of these? true (1) (active), false (0) (inactive)

Answered cases to consult:
Ask: Name the outcome recorded for CSC(=S)N/N=C/c1nccc2ccccc12 in the assay.
Reply: true (1)

Ask: Now this one: C[C@@H]1O[C@@H]2OCC[C@@H]2C2=C1C(=O)c1ccccc1C2=O
Reply: false (0)

Ask: Now this one: O=C1N[C@@H](c2c[nH]c3ccc(Br)cc23)C(=O)N[C@H]1c1c[nH]c2ccc(Br)cc12
Reply: false (0)

Ask: Now this one: C/C(Sc1ccccc1)=C1/CCCN(Cc2ccccc2)C1
Reply: false (0)

Next:
Ask: Name the outcome recorded for CSc1nc2c(nc(N)n2C2OC(COC(C)=O)C(OC(C)=O)C(OC(C)=O)C2OC(C)=O)c(=O)n1C (stereo unspecified) in the assay.
Reply: false (0)

Ask: Now this one: CC(C)(C)OC[C@H](O)CC#N
Reply: false (0)
